molecules and their reported minimal effective concentration
Tested on: iCell endothelial cells (human iPSC-derived ECs)
Assay: High-content imaging cytotoxicity in iCell endothelial cells, 24 h
Type: cell-based
Conditions: Homo sapiens, Endothelial cell, endothelial cells (endo), mito, 24 hr, read-out: POD endo.mito.24hr
Structures can show the parent of a compound that is named as a salt.
// note: answer is a bare numeric in µM

The following molecules have reported results that may help.
For the molecule COc1ccc(-c2cccc(Cl)c2)cc1Cl [4-OMe-PCB 11, 4-methoxy-3,3′-dichlorobiphenyl] , give its measured minimal effective concentration value.
100

For the molecule O=C1C=CC(=O)C(c2ccc(Cl)cc2)=C1 [4-Cl-BQ, 2-(4-Chlorophenyl)benzo-2,5-quinone] , give its measured minimal effective concentration value.
3.82

New cases:
For the molecule COc1ccc(-c2ccc(Cl)cc2)cc1 [4'-OMe-PCB 3, 4′-methoxy-4-chlorobiphenyl] , give its measured minimal effective concentration value.
100

For the molecule Oc1ccc(O)c(-c2ccc(Cl)cc2)c1 [2',5'-diOH-PCB 3, 4-Chloro-2′,5′-dihydroxybiphenyl] , give its measured minimal effective concentration value.
6.71

For the molecule O=S(=O)(O)Oc1cc(-c2ccccc2)ccc1Cl [3-PCB 3 sulfate] , give its measured minimal effective concentration value.
100

For the molecule Clc1ccc(-c2cc(Cl)c(Cl)c(Cl)c2)cc1Cl [PCB 126, 3,3′,4,4′,5-pentachlorobiphenyl] , give its measured minimal effective concentration value.
0.33

----------
Test system: iCell cardiomyocytes (human iPSC-derived cardiomyocytes)
Assay: High-content imaging of cytotoxicity and mitochondrial integrity in iPSC-CMs
Type: cell-based
Details: Homo sapiens, Cardiomyocyte, 24 h, 0.01 µM; 0.00 µM = 100.00; read-out: cm.mito.24hrs
Method: Details on cardiomyocyte cell culture are described in detail elsewhere ([Grimm et al. 2015b]; [Sirenko et al. 2013a]). […] Live cell counts for each cell suspension were determined by trypan blue staining and cells were further diluted to provide final cell densities of 2×10^5 viable cells/ml. […] Phenotypic responses were quantitatively assessed using concentration–response modeling as detailed elsewhere ([Sirenko et al. 2017]). […]
Where a name gives a salt, the structure may show the parent alone.
molecules and their reported activity at 0.01 µM
// note: answer is a bare numeric in %

The following molecules have reported results that may help.
For the molecule Oc1ccccc1-c1ccc(Cl)cc1 , give its measured activity at 0.01 µM value.
92.6

For the molecule O=S(=O)(O)Oc1cc(Cl)ccc1-c1ccccc1 [2-yl PCB 3 sulfate] , give its measured activity at 0.01 µM value.
100

For the molecule Clc1cccc(-c2cccc(Cl)c2)c1 , give its measured activity at 0.01 µM value.
102

New cases:
For the molecule O=S(=O)(O)Oc1cccc(-c2ccc(Cl)cc2)c1 [3'-yl PCB 3 sulfate] , give its measured activity at 0.01 µM value.
95.4

----------
Test system: HUVECs
Assay: High-content imaging cytotoxicity in HUVECs, 24 h
Format: cell-based, human
Conditions: Homo sapiens, HUVEC, 24 h, HUVECs, 24 hrs, 100.00 µM; 0.00 µM = 100.00; read-out: huvec.tc.24hrs
Structures can show the parent of a compound that is named as a salt.
MEASURE NAME: viability at 100 µM
Please state the number and follow it with the unit.

For the compound COc1ccc(-c2cccc(Cl)c2)cc1Cl [4-OMe PCB11] , give its measured viability at 100 µM value.
56.4%

For the compound Oc1ccc(-c2cccc(Cl)c2)cc1Cl [4-OH PCB11] , give its measured viability at 100 µM value.
36.5%

For the compound Oc1cc(Cl)cc(-c2cccc(Cl)c2)c1 [5-OH PCB 11] , give its measured viability at 100 µM value.
26.8%

For the compound Oc1ccc(O)c(-c2ccc(Cl)cc2)c1 [2',5'-DiOH PCB3] , give its measured viability at 100 µM value.
89.6%

For the compound Oc1ccc(-c2ccc(Cl)cc2)cc1 [4'-OH PCB3] , give its measured viability at 100 µM value.
77.9%

For the compound COc1ccc(-c2ccc(Cl)cc2)cc1 [4'-OMe PCB3] , give its measured viability at 100 µM value.
70.2%

For the compound O=S(=O)(O)Oc1ccc(-c2cccc(Cl)c2)cc1Cl [4-yl PCB 11 sulfate] , give its measured viability at 100 µM value.
59.1%

For the compound O=S(=O)(O)Oc1cc(Cl)ccc1-c1ccccc1 [2-yl PCB 3 sulfate] , give its measured viability at 100 µM value.
93%

New cases:
For the compound O=S(=O)(O)Oc1cc(-c2ccccc2)ccc1Cl [3-yl PCB 3 sulfate] , give its measured viability at 100 µM value.
98.8%

For the compound Oc1ccccc1-c1ccc(Cl)cc1 [2'-OH PCB3] , give its measured viability at 100 µM value.
84.1%

Each recorded value in this set is attributed to paper PMC7377239.
